Target: Tlp11 (CcrG, Campylobacter ChemoReceptor for Galactose)
Assay: SPR (Biacore); STD-NMR
metric: Kd (µM)
Respond numerically; units are µM and should not be typed.

Q: # returns recorded Kd (system: Tlp11 (CcrG, Campylobacter ChemoReceptor for Galactose)) for OC[C@H]1OC(O)[C@H](O)[C@@H](O)[C@H]1O (stereo partly shown)
Ans: 17

Where do these numbers come from? They come from paper PMC5080441.
